target: T1, recombinant gp120 of HIV-1 strain IIIb (HIV-1 strain IIIb, UniProt P04578 33-511); experiment: SPR BIAcore, gp120 on chip (summary table)
T1 construct: domain: gp120; also called IIIb-derived gp120; gp 120 (IIIB strain)
READOUT_NAME: Kd (nM)
One number for each entry, in nM.

INSERT INTO results (binder, unit_label, val) VALUES
  ('Fab QA9 (Fab, V domains shown) VH: LEQSGAEVKKPGASVKVSCQASGYRFSNFTVHWVRQAPGQRFEWMGWINPYNGNKEFSAKFQDRVTFTADTSANTAYMELRSLRSADTAVYYCARVGEWGWDDSPQDNYYMDVWGKGTTVIVSS VL: ELTQSPGTLSLSPGERATFSCRSSHQLDGSRVAWYQHKPGQAPRLVIHGVSNRASGISDRFSGSGSGTDFTLTITRVEPEDFALYYCQMYGGFTYTFGQGTKLERKR', 'nM', 0.61),
  ('Fab QA8 (Fab, V domains shown) VH: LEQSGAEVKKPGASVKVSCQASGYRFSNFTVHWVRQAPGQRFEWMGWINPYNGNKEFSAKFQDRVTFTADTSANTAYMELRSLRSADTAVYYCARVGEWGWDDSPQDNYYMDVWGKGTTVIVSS VL: ELTQSPGTLSLSPGERATFSCRSSHQLDGSRVAWYQHKPGQAPRLVIHGVSNRASGISDRFSGSGSGTDFTLTITRVEPEDFALYYCQQYGDSLYTFGQGTKLERKR', 'nM', 0.44);

With those in mind, consider the next binder.
Recorded Kd of Fab M556-16 (Fab, V domains shown) VH: LEQSGAEVKKPGASVKVSCQASGYRFSNFTVHWVRQAPGQRFEWMGWINPYNGNKEFSAKFQDRVTFTADTSANTAYMELRSLRSADTAVYYCARVGEWGWDQVRYDNYYMDVWGKGTTVIVSS VL: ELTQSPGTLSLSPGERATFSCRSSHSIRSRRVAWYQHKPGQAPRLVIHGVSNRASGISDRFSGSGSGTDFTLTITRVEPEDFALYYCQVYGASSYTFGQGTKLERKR , please.
0.139

Where do these numbers come from? They come from patent US6395275.
